Target: TRPC5 (Homo sapiens, UniProt Q9UL62)
Construct: expressed in transfected cells; host or cells: HEK 293
Sequence (Q9UL62 1-973): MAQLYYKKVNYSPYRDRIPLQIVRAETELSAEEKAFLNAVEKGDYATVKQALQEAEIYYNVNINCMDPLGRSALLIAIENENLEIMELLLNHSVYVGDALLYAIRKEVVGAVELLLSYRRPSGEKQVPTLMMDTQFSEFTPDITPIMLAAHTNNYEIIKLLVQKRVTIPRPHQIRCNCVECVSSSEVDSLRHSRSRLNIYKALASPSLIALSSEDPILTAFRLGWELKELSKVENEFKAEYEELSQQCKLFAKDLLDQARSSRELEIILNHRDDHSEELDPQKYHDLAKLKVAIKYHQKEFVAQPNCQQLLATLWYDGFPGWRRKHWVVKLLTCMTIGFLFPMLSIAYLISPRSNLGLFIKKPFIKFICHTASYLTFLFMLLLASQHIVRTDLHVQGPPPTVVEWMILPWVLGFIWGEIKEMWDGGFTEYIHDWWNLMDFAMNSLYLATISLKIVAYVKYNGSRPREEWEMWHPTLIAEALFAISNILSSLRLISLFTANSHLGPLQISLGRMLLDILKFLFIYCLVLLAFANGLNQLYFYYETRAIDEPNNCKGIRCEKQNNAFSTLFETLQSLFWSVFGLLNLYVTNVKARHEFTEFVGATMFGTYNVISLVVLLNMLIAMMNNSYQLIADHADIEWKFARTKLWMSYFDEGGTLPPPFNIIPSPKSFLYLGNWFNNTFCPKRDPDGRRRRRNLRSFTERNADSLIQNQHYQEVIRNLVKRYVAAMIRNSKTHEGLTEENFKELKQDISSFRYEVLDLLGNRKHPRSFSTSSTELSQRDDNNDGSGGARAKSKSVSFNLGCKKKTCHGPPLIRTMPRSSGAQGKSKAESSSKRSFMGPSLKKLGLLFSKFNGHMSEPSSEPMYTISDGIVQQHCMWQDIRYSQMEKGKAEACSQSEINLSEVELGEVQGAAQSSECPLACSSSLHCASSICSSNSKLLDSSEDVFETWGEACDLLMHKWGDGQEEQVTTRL
Experiment: TRPC5 automated patch clamp assay (Qpatch), current block after rosiglitazone stimulation
Type: cell-based
Conditions: Table 5; HEK293 cells overexpressing TRPC5; rosiglitazone stimulation; 100 mV; read-out: TRPC5_QP_ XC50_100
pIC50: −log10 of the molar value.
Measured property: pIC50

>>> df
                              record_smiles  measured_property        result
0       Cc1ccccc1CN1CCN(c2ccn[nH]c2=O)CC1=O              pIC50  3.30 to 5.00
1  O=c1[nH]ncc(N2CCN(Cc3ccc(F)cc3C(F)(F)F)CC2)c1Cl              pIC50  5.30 to 6.00
2  O=C1CN(c2c(Cl)cn[nH]c2=O)CCN1Cc1ccccc1OC(F)(F)F              pIC50  3.30 to 5.00

Proceeding to the next compound to report its pIC50.
Input: I am curious: what pIC50 value has been reported for Cc1cc(F)ccc1CN1CCN(c2c(Br)n[nH]c(=O)c2Cl)CC1=O ?
Output: 3.30 to 5.00

----------
Biological target: TRPC5 (Homo sapiens, UniProt Q9UL62)
Construct: expressed in transfected cells; host or cells: HEK 293
Sequence (Q9UL62 1-973): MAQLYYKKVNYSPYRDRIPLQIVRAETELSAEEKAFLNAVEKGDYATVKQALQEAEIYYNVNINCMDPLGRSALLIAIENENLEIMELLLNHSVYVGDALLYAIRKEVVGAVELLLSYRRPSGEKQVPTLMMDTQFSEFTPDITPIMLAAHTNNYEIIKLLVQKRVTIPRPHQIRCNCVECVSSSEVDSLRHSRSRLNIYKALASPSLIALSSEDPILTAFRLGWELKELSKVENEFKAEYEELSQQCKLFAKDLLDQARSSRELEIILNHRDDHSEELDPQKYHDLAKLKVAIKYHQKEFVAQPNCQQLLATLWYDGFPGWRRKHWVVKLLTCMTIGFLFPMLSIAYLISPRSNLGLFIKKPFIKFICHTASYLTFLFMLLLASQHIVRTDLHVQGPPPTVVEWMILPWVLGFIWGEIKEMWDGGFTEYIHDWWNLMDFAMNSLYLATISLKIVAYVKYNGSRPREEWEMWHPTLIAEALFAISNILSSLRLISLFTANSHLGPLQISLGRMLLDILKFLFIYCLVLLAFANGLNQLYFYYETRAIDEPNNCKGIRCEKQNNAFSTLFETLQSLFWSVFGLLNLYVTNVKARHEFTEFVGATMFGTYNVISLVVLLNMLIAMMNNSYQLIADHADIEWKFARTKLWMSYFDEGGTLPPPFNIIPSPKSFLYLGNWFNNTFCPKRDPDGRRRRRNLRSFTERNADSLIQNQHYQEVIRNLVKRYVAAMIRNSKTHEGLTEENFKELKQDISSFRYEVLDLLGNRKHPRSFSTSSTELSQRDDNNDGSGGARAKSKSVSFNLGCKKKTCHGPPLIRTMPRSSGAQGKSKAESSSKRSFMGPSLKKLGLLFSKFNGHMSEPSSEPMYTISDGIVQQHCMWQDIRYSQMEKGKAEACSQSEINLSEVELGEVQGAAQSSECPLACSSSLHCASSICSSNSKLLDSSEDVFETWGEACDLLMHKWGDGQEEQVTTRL
Assay: TRPC5 Fluorescence Assay - FLIPR format (HEK-TREx hTRPC5, Riluzole stimulation)
Format: cell-based
Details: Table 10, read-out: TRPCS-FLIPR IC50
Let's look at some compounds and their measured IC50.

Below: 5 compounds and their reported IC50.
In [3]: df
Out[3]:
                                   compound  measured_property            result
0  NC[C@H](c1ccc(F)cc1C(F)(F)F)n1cnc2c1CCN(c1cn[nH]c(=O)c1Cl)C2               IC50  5000 to 10000 nM
1  CN1CCN(Cc2nn(Cc3ccccc3C(F)F)c3c2CN(c2cn[nH]c(=O)c2Cl)CC3)C(=O)C1 [drawing 1111]               IC50   0.01 to 1000 nM
2  CNC(=O)c1nc2c(n1Cc1ccccc1C(F)(F)F)CCN(c1cn[nH]c(=O)c1Cl)C2 [drawing 1134]               IC50   0.01 to 1000 nM
3  C[C@H](c1ccccc1C(F)(F)F)n1nc(C(N)=O)c2c1CCN(c1cn[nH]c(=O)c1Cl)C2 [drawing 1123]               IC50   0.01 to 1000 nM
4  CN(C)Cc1cc(F)ccc1Cn1nnc2c1CCN(c1cn[nH]c(=O)c1Cl)C2               IC50   1000 to 5000 nM

Input: I am curious: what IC50 value has been reported for C[C@@H](c1ccccc1Cl)n1nnc2c1CCN(c1cn[nH]c(=O)c1Cl)C2 [drawing 1140] ?
Output: 0.01 to 1000 nM

Input: I am curious: what IC50 value has been reported for C[C@H](c1ccc(F)cc1C(F)F)n1nnc2c1CCN(c1cn[nH]c(=O)c1Cl)C2 ?
Output: 0.01 to 1000 nM
